target: GSPT1 (Homo sapiens, UniProt P15170+Q96SW2); assay: Immunofluorescence assay for GSPT1 degradation in CAL-51 cells; format: cell-based; parameters: CAL-51 cells were purchased from DSMZ (cat. Number ACC302); endogenous in cells; host or cells: CAL-51 (DSMZ ACC302); conditions: GSPT1 degradation, compound treatment 6 hours, read-out: DC50
Sequence (P15170 whole entry): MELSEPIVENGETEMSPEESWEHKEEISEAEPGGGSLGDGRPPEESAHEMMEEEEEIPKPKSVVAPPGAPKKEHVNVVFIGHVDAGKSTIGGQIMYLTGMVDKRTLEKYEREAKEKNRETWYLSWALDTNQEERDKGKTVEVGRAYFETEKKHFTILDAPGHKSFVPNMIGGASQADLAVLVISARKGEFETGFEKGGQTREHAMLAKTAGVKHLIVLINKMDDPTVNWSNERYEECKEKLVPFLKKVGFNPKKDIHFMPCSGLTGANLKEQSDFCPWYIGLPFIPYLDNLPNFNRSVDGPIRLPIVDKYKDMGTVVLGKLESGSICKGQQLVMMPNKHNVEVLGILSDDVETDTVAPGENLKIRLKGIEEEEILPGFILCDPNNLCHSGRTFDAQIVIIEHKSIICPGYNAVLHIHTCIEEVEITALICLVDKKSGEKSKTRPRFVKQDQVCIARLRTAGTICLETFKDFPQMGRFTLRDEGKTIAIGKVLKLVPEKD
Sequence (Q96SW2 whole entry): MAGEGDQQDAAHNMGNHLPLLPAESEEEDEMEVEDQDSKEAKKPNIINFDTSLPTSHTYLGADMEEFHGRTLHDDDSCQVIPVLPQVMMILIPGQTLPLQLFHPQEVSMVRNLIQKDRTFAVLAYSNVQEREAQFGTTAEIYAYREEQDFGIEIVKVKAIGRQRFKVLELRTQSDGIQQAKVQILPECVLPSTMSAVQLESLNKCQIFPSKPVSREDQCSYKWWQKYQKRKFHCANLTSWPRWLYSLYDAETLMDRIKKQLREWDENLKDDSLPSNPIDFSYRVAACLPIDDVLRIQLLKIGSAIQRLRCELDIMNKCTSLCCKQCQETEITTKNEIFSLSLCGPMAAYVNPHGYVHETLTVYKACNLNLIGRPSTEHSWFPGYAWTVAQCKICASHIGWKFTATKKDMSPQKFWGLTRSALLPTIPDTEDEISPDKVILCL
Sequence (Q16531 2-1140 partner limits assumed): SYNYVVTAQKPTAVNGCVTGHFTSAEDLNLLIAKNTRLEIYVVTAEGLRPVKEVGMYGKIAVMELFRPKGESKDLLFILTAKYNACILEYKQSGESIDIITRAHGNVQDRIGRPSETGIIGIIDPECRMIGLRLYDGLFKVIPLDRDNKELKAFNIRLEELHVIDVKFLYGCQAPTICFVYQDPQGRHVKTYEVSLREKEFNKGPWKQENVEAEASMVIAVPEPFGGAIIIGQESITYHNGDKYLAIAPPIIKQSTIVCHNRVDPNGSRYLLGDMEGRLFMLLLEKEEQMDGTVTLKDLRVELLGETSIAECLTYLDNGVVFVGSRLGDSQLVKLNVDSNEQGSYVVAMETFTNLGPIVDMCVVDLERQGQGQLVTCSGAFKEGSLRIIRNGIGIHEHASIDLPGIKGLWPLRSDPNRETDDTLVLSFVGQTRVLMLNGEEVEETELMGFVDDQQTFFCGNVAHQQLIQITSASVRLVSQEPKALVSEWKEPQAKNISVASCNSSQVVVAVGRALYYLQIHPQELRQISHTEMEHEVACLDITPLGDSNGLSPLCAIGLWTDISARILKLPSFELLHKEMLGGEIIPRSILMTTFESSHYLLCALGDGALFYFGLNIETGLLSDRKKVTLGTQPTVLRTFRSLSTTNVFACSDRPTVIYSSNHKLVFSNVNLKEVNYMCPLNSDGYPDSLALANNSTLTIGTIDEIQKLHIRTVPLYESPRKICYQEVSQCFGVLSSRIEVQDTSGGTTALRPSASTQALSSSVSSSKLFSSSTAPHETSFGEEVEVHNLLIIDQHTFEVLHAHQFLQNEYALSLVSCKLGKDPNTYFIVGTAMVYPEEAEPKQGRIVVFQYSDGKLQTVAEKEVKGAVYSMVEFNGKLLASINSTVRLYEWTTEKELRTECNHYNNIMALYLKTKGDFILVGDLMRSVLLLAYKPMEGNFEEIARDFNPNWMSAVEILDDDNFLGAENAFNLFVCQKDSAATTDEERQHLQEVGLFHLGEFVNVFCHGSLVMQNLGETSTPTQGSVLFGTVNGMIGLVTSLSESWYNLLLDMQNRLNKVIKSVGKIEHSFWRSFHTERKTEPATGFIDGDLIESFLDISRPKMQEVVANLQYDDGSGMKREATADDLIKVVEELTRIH
MEASURED QUANTITY: DC50 (µM)

Some solved entries appear below for comparison.
{"MOLECULE": "Cc1ccc(NC(=O)NCc2ccc3c(c2)C(=O)N(C2CCC(=O)NC2=O)C3)cc1C (stereo not drawn) [Compound 68]", "UNITS": "µM", "VALUE MEASURED": 0.2}
{"MOLECULE": "Cc1cc(C)c(NC(=O)NCc2ccc3c(c2)C(=O)N(C2CCC(=O)NC2=O)C3)cc1Cl (stereo not drawn) [Compound 85]", "UNITS": "µM", "VALUE MEASURED": 0.274}
{"MOLECULE": "Cc1c(Cl)cc(NC(=O)NCc2ccc3c(c2)C(=O)N(C2CCC(=O)NC2=O)C3)cc1CN1CC2(COC2)C1 (stereo not drawn) [Compound 109]", "UNITS": "µM", "VALUE MEASURED": 0.246}

I = O=C1CCC(N2Cc3ccc(CNC(=O)Nc4ccc(C(F)(F)F)cc4)cc3C2=O)C(=O)N1 (stereo not drawn) [Compound 41]
II = O=C1CCC(N2Cc3ccc(CNC(=O)Nc4ccc(F)c(Cl)c4)cc3C2=O)C(=O)N1 (stereo not drawn) [Compound 42]
Returns: the argument ( I or II ) having the larger DC50. State the label of the item chosen.
II

* * *

biological target: GSPT1 (Homo sapiens, UniProt P15170+Q96SW2); assay: Immunofluorescence assay for GSPT1 degradation in CAL-51 cells; format: cell-based; design: CAL-51 cells were purchased from DSMZ (cat. Number ACC302); endogenous in cells; host or cells: CAL-51 (DSMZ ACC302); settings: compound treatment 6 hours, read-out: Code: activity for GSPT1 degradation (DC50)
Catalogue of DC50 values

For orientation, consider the following solved cases.
{"COMPOUND": "COCCNC(=O)NCc1ccc2c(c1)C(=O)N(C1CCC(=O)NC1=O)C2 (stereo not shown)", "DC50": "> 300 nM"}
{"COMPOUND": "Cc1ccc(CNC(=O)NCc2ccc3c(c2)C(=O)N(C2CCC(=O)NC2=O)C3)cc1Cl (stereo not shown)", "DC50": "> 300 nM"}
{"COMPOUND": "Cc1c(Cl)cc(NC(=O)NCc2ccc3c(c2)C(=O)N(C2CCC(=O)NC2=O)C3)cc1CN1CCN(C)CC1 (stereo not shown)", "DC50": "> 300 nM"}

Could you tell me which DC50 is on file for Cc1c(Cl)cc(NC(=O)NCc2ccc3c(c2)C(=O)N(C2CCC(=O)NC2=O)C3)cc1CC(=O)O (stereo not shown) ?
> 300 nM

Reported DC50, compound COc1ccc(NC(=O)NCc2ccc3c(c2)C(=O)N(C2CCC(=O)NC2=O)C3)cc1Cl (stereo not shown) : ____
100 to 300 nM

* * *

target: ZFP91 (Homo sapiens); construct: MM1S cells were purchased from ATCC (cat. Number CRL-2974); endogenous in cells; host or cells: MM1S (ATCC CRL-2974); assay: Selectivity determination by Western Blot assay in MM1S cells: ZFP91; assay type: cell-based; set-up: key: A represents a no degradation observed at 30 μM; B represents trace degradation at 30 μM (below 20%); C represents weak degradation at 30 μM (below 50%); D represents degradation at 30 μM (>90%); E represents degradation at 3 μM (>90%); F represents degradation at 0.3 μM (>90%); conditions: MM1S cells, 0.3, 3 and 30 μM, 6 hours
Sequence (Q96JP5 2-570 limits assumed, one chain of several): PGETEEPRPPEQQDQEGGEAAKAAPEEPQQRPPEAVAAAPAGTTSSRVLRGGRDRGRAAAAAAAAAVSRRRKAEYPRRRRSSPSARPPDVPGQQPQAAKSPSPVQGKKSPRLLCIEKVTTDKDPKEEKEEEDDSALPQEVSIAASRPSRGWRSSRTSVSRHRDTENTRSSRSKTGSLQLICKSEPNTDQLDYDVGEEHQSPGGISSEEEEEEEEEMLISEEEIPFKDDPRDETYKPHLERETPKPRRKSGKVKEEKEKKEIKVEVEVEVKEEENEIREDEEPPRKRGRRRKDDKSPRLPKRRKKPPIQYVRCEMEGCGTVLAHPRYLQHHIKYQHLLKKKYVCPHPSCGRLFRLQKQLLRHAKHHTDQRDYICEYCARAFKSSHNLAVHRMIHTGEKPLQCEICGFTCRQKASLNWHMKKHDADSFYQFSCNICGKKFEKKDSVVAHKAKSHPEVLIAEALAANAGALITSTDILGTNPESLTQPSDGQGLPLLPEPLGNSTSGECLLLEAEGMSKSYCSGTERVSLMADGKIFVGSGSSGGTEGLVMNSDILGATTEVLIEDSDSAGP

{"COMPOUND": "Cc1c(Cl)cc(NC(=O)NCc2ccc3c(c2)C(=O)N(C2CCC(=O)NC2=O)C3)cc1CN(C)C (stereo not shown)", "ZFP91 degradation code": "A"}
{"COMPOUND": "Cc1cc(C)c(NC(=O)NCc2ccc3c(c2)C(=O)N(C2CCC(=O)NC2=O)C3)cc1Cl (stereo not shown)", "ZFP91 degradation code": "A"}
